- Tested on: T47D
- MEASUREMENT_DESCRIPTION: Antiproliferative activity against human T47D cells assessed as cell viability at 10^-5 M incubated for 48 hrs by sulforhodamine B assay relative to control
- Type: functional
- CONDITION_INFO: read-out: Activity
viability at 10 µM listing for selected molecules.
QUANTITY: viability at 10 µM

CCOc1cc2c(cc1OCC)C1CC(O)C(O)C(O)C1NC2=O (racemic) ... 90.2%
COc1cc2c(c(OC)c1OC)C(=O)NC1C2CC(O)C(O)C1O (racemic) ... 100%
CCOc1c(OC)cc2c(c1O)C(=O)NC1C2CC(O)C(O)C1O (racemic) ... 92.8%
COc1cc2c(c3c1OCCO3)C(=O)NC1C2CC(O)C(O)C1O (racemic) ... 87.9%
O=C1NC2C(CC(O)C(O)C2O)c2cc3c(cc21)OCCO3 (racemic) ... 104%
CCOc1cc2c(c(OCC)c1OCC)C(=O)NC1C2CC(O)C(O)C1O (racemic) ... 100%
COc1c2c(cc3c1C(=O)NC1C3CC(O)C(O)C1O)OCCO2 (racemic) ... 84.9%
CCOc1cc2c(c(OC)c1OCC)C(=O)NC1C2CC(O)C(O)C1O (racemic) ... 96.3%
CCOc1cc2c(c(O)c1OCC)C(=O)NC1C2CC(O)C(O)C1O (racemic) ... 90.4%
O=C1NC2C(CC(O)C(O)C2O)c2cc3c(c(O)c21)OCCO3 (racemic) ... -15.8%
O=C1NC2C(CC(O)C(O)C2O)c2cc3c(c(O)c21)OCO3 (racemic) ... -8.46%
CCOc1c(OC)cc2c(c1OCC)C(=O)NC1C2CC(O)C(O)C1O (racemic) ... 106%
CCCOc1cc2c(cc1OCC)C1CC(O)C(O)C(O)C1NC2=O (racemic) ... 105%

====

- System: SK-MEL-28
- MEASUREMENT_DESCRIPTION: Antiproliferative activity against human SK-MEL-28 cells assessed as cell viability at 10^-5 M incubated for 48 hrs by sulforhodamine B assay relative to control
- Type: functional
- CONDITION_INFO: SK-MEL-28, 48 h, read-out: Activity
QUANTITY: viability at 10 µM (%)

COc1c2c(cc3c1C(=O)NC1C3CC(O)C(O)C1O)OCCO2 (racemic) ... 106
CCOc1cc2c(c(OCC)c1OCC)C(=O)NC1C2CC(O)C(O)C1O (racemic) ... 107
CCOc1cc2c(c(OC)c1OCC)C(=O)NC1C2CC(O)C(O)C1O (racemic) ... 105
COc1cc2c(c(OC)c1OC)C(=O)NC1C2CC(O)C(O)C1O (racemic) ... 111
CCOc1cc2c(cc1OCC)C1CC(O)C(O)C(O)C1NC2=O (racemic) ... 110
COc1cc2c(c3c1OCCO3)C(=O)NC1C2CC(O)C(O)C1O (racemic) ... 106
CCOc1c(OC)cc2c(c1OCC)C(=O)NC1C2CC(O)C(O)C1O (racemic) ... 108
CCOc1cc2c(c(O)c1OCC)C(=O)NC1C2CC(O)C(O)C1O (racemic) ... 105
CCOc1c(OC)cc2c(c1O)C(=O)NC1C2CC(O)C(O)C1O (racemic) ... 105
O=C1NC2C(CC(O)C(O)C2O)c2cc3c(c(O)c21)OCCO3 (racemic) ... -16.4

====

- System: OVCAR-5
- MEASUREMENT_DESCRIPTION: Antiproliferative activity against human OVCAR5 cells assessed as cell viability at 10^-5 M incubated for 48 hrs by sulforhodamine B assay relative to control
- Assay type: functional
- CONDITION_INFO: OVCAR-5, 48 h, read-out: Activity
QUANTITY: viability at 10 µM (%)

O=C1NC2C(CC(O)C(O)C2O)c2cc3c(cc21)OCCO3 (racemic) ... 107
COc1cc2c(c3c1OCCO3)C(=O)NC1C2CC(O)C(O)C1O (racemic) ... 103
CCOc1cc2c(c(OC)c1OCC)C(=O)NC1C2CC(O)C(O)C1O (racemic) ... 109

====

- Test system: OVCAR-4
- MEASUREMENT_DESCRIPTION: Antiproliferative activity against human OVCAR4 cells assessed as cell viability at 10^-5 M incubated for 48 hrs by sulforhodamine B assay relative to control
- Format: functional
- CONDITION_INFO: OVCAR-4, 48 h, read-out: Activity
QUANTITY: viability at 10 µM (%)

CCCOc1cc2c(cc1OCC)C1CC(O)C(O)C(O)C1NC2=O (racemic) ... 107
CCOc1cc2c(c(OC)c1OCC)C(=O)NC1C2CC(O)C(O)C1O (racemic) ... 105
CCOc1c(OC)cc2c(c1OCC)C(=O)NC1C2CC(O)C(O)C1O (racemic) ... 103
O=C1NC2C(CC(O)C(O)C2O)c2cc3c(c(O)c21)OCCO3 (racemic) ... -8.78
COc1cc2c(c(OC)c1OC)C(=O)NC1C2CC(O)C(O)C1O (racemic) ... 107
COc1c2c(cc3c1C(=O)NC1C3CC(O)C(O)C1O)OCCO2 (racemic) ... 105
CCOc1cc2c(cc1OCC)C1CC(O)C(O)C(O)C1NC2=O (racemic) ... 107
O=C1NC2C(CC(O)C(O)C2O)c2cc3c(c(O)c21)OCO3 (racemic) ... -23.7
COc1cc2c(c3c1OCCO3)C(=O)NC1C2CC(O)C(O)C1O (racemic) ... 108
O=C1NC2C(CC(O)C(O)C2O)c2cc3c(cc21)OCCO3 (racemic) ... 107
CCOc1cc2c(c(O)c1OCC)C(=O)NC1C2CC(O)C(O)C1O (racemic) ... 103
CCOc1c(OC)cc2c(c1O)C(=O)NC1C2CC(O)C(O)C1O (racemic) ... 107
CCOc1cc2c(c(OCC)c1OCC)C(=O)NC1C2CC(O)C(O)C1O (racemic) ... 105

====

- Test system: SK-MEL-5
- MEASUREMENT_DESCRIPTION: Antiproliferative activity against human SK-MEL-5 cells assessed as cell viability at 10^-5 M incubated for 48 hrs by sulforhodamine B assay relative to control
- Format: functional
- CONDITION_INFO: SK-MEL-5, 48 h, read-out: Activity
QUANTITY: viability at 10 µM (%)

COc1cc2c(c3c1OCCO3)C(=O)NC1C2CC(O)C(O)C1O (racemic) ... 101
CCOc1cc2c(c(OCC)c1OCC)C(=O)NC1C2CC(O)C(O)C1O (racemic) ... 107
CCOc1c(OC)cc2c(c1OCC)C(=O)NC1C2CC(O)C(O)C1O (racemic) ... 99.8
COc1cc2c(c(OC)c1OC)C(=O)NC1C2CC(O)C(O)C1O (racemic) ... 104
O=C1NC2C(CC(O)C(O)C2O)c2cc3c(cc21)OCCO3 (racemic) ... 102
CCOc1cc2c(cc1OCC)C1CC(O)C(O)C(O)C1NC2=O (racemic) ... 99.6
O=C1NC2C(CC(O)C(O)C2O)c2cc3c(c(O)c21)OCCO3 (racemic) ... -52.1
CCOc1cc2c(c(OC)c1OCC)C(=O)NC1C2CC(O)C(O)C1O (racemic) ... 102
O=C1NC2C(CC(O)C(O)C2O)c2cc3c(c(O)c21)OCO3 (racemic) ... -72.7
COc1c2c(cc3c1C(=O)NC1C3CC(O)C(O)C1O)OCCO2 (racemic) ... 99
CCOc1c(OC)cc2c(c1O)C(=O)NC1C2CC(O)C(O)C1O (racemic) ... 101
CCCOc1cc2c(cc1OCC)C1CC(O)C(O)C(O)C1NC2=O (racemic) ... 100
CCOc1cc2c(c(O)c1OCC)C(=O)NC1C2CC(O)C(O)C1O (racemic) ... 102

====

- Tested on: M14
- MEASUREMENT_DESCRIPTION: Antiproliferative activity against human M14 cells assessed as cell viability at 10^-5 M incubated for 48 hrs by sulforhodamine B assay relative to control
- Assay type: functional
- CONDITION_INFO: M14, 48 h, read-out: Activity
Overview of recorded viability at 10 µM for various compounds
QUANTITY: viability at 10 µM (%)

CCCOc1cc2c(cc1OCC)C1CC(O)C(O)C(O)C1NC2=O (racemic) ... 103
CCOc1c(OC)cc2c(c1OCC)C(=O)NC1C2CC(O)C(O)C1O (racemic) ... 99.1
CCOc1cc2c(c(OC)c1OCC)C(=O)NC1C2CC(O)C(O)C1O (racemic) ... 107
COc1cc2c(c(OC)c1OC)C(=O)NC1C2CC(O)C(O)C1O (racemic) ... 98.5
COc1c2c(cc3c1C(=O)NC1C3CC(O)C(O)C1O)OCCO2 (racemic) ... 105
O=C1NC2C(CC(O)C(O)C2O)c2cc3c(cc21)OCCO3 (racemic) ... 98.9
CCOc1cc2c(cc1OCC)C1CC(O)C(O)C(O)C1NC2=O (racemic) ... 99.1
CCOc1c(OC)cc2c(c1O)C(=O)NC1C2CC(O)C(O)C1O (racemic) ... 105
CCOc1cc2c(c(O)c1OCC)C(=O)NC1C2CC(O)C(O)C1O (racemic) ... 100
COc1cc2c(c3c1OCCO3)C(=O)NC1C2CC(O)C(O)C1O (racemic) ... 104
O=C1NC2C(CC(O)C(O)C2O)c2cc3c(c(O)c21)OCO3 (racemic) ... -81.7
O=C1NC2C(CC(O)C(O)C2O)c2cc3c(c(O)c21)OCCO3 (racemic) ... -45.8
CCOc1cc2c(c(OCC)c1OCC)C(=O)NC1C2CC(O)C(O)C1O (racemic) ... 103

The values you see were collected from ChEMBL document CHEMBL4346705.
